System: HT29 colon
Test: NCI tumour cell line growth inhibition, 48 h; in the data active = GI50 below about 0.43 µM; inactive = the rest
Hello, when you answer, please use one of the following outcomes: yes = active, no = inactive

{"molecule": "Cc1cc(=O)[nH]c2c1C(=O)C(=O)C=C2", "group": "no"}
{"molecule": "N=C(N)c1ccc(-c2ccc(-c3ccccc3)o2)o1", "group": "no"}
{"molecule": "Cc1cnc2n(c1=O)Cc1ccccc1CO2", "group": "no"}
{"molecule": "O=c1c(Br)ccc(Br)cc1Br", "group": "no"}
{"molecule": "CCCCCCOc1ccc(/C=N/Nc2cc(C)nc3ccc(Br)cc23)cc1", "group": "no"}
{"molecule": "COc1cc(Nc2nccc(-c3cnn4ncccc34)n2)cc(OC)c1", "group": "yes"}
{"molecule": "CCCCCCCCCCCC(=O)[O][Sn]([CH2]CCC)([CH2]CCC)[CH2]CCC", "group": "yes"}
{"molecule": "CN(Cc1cccc(Cl)c1)c1ccc(CO)c(Cl)c1", "group": "no"}
{"molecule": "Nc1ncnc2c1c(-c1ccc(Oc3ccccc3)cc1)nn2C[C@H]1SSC[C@H]1O", "group": "yes"}
{"molecule": "CC/C(=C(/c1ccc(Cl)cc1)c1ccc(OCCCN(C)C)cc1)c1ccc(OC)cc1", "group": "no"}

Write down the call the test reported for this molecule. Item: C/C(=N\O)c1ccc(Nc2cc(-c3ccccc3)nc3c(O)cccc23)cc1 no

Same thing, different molecule: Cc1nc(N(C)C)nc(-c2cccc(-c3ccn(CCN(C)C)n3)c2)c1C no

Same thing, different molecule: Nc1c(C(=O)Nc2cccc3ccccc23)sc2nc3c(cc12)CCCCCC3 no

Same thing, different molecule: NC(CSC(c1ccccc1)(c1ccccc1)c1ccc(Br)cc1)C(=O)O (stereo not drawn) yes

Same thing, different molecule: COc1cc(/C=C2\CCCC3=C2N=C2SC=NN2C3c2cc(OC)c(OC)c(OC)c2)cc(OC)c1OC (stereo not drawn) no

Same thing, different molecule: Nc1c(S(=O)(=O)O)cc2c(c1Cl)C(=O)c1ccccc1C2=O no

Same thing, different molecule: O=C(Nc1ccc(-n2cc(-c3ccncc3)c(-c3ccc(Cl)c(O)c3)n2)cc1)c1ccc(Cl)c(C(F)(F)F)c1 no

Same thing, different molecule: COc1cc(/C=C/C(=O)c2ccc(SC)cc2)cc(OC)c1OC no

====

Tested on: XF 498 CNS
Test: NCI tumour cell line growth inhibition, 48 h
// values below are reported TGI
Write the answer as a number in µM, unit excluded.

{"substance_smiles": "CCCCCCCCC[C@@H]1C[C@H](O)[C@H](Cc2ccccc2)N1C(=O)OC(C)(C)C", "TGI / µM": 37}

Fill in: TGI of Nc1c(-c2ccc(-c3c(N)[n+]([O-])c4ccccc4[n+]3[O-])cc2)[n+]([O-])c2ccccc2[n+]1[O-] is ___ 23.9

====

System: RXF 393 renal
Assay: NCI tumour cell line growth inhibition, 48 h
Decide by TGI: equal to or exceeding 30 µM means Y, less means N.

{"compound": "C[C@@H](Br)[C@@H]1CC[C@H]2c3[nH]c4ccccc4c3CCN2C1", "target_desc": "RXF 393 renal", "group": "Y"}
{"compound": "CCOC(=O)C(/C=N/C(N)=S)=C(/O)c1ccccc1", "target_desc": "RXF 393 renal", "group": "Y"}
{"compound": "O=C1C=C(NCCc2ccc(O)cc2)C(=O)C=C1NCCc1ccc(O)cc1", "target_desc": "RXF 393 renal", "group": "Y"}
{"compound": "Nc1[nH]nc2c1Cc1c(n(Cc3ccc(Cl)cc3)c3ccccc13)C(=O)N2", "target_desc": "RXF 393 renal", "group": "N"}
{"compound": "c1ccc2c(c1)-c1nc3ccccc3cc1C2N1CCOCC1 (stereo not given)", "target_desc": "RXF 393 renal", "group": "Y"}

Item COc1ccc(/C=C2\CCC(CN(C)C)C2=O)cc1 (stereo not given) with TGI of 30 µM or above? N

Same thing, different compound: CCCCCC(=O)OC[n+]1ccc(-c2c(COC(=O)NC(C)C)c(COC(=O)NC(C)C)c3n2CCC3)cc1 Y

Same thing, different compound: CN1CCN(C(=S)N(C(=O)c2ccc(Cl)cc2)C2CCCCC2)CC1 Y

Same thing, different compound: C[C@H](OC(=O)/C=C/c1ccc(O)c(O)c1)[C@H](C)OC(=O)/C=C/c1ccc(O)c(O)c1 N

Same thing, different compound: CC(=O)Oc1cc(OC(C)=O)c(OC(C)=O)c2c1CC1C(=O)C3(CCc4ccccc43)C(=O)C1C2 (stereo not given) N

Reference for the values: PubChem BioAssay (NCI)
